Reference for the values: the supplement of paper PMC11451515

tested on: SEM cells; assay: cell viability relative to DMSO control; higher = less cytotoxic; details: RPMI 5 mM glucose + 10% dialyzed FBS; 48 h; 15.4 µM
Param label: returns criterion met when cell viability < 30%, returns criterion not met otherwise, including exact equality.

molecule	target or system	label value
C/C(O)=C(\C#N)C(=O)Nc1cc(Br)ccc1Br	SEM cells	criterion not met
O=C1Nc2ccc(I)cc2/C1=C/c1cc(Br)c(O)c(Br)c1	SEM cells	criterion not met

Could you please tell me whether cell viability recorded for CC/1=C(/C(CC(=O)N1)C2=CC=C(C=C2)C(F)(F)F)C(=O)NC3=C(F)C=C4[NH]N=CC4=C3 (stereo not given) is less than 30%? criterion met

Could you please tell me whether cell viability recorded for COc1cc(OC)c(OC)cc1C=O is less than 30%? criterion not met

Could you please tell me whether cell viability recorded for NC/1=N/C(=O)N(/C=C1F)[C@H]2CS[C@H](CO)O2 is less than 30%? criterion not met
